Tested on: Rat fibroblasts (CREF)
Assay: Peg3 promoter luciferase inhibitors, potency, dose response, cell-based, HeLa, CREF/GAPDH counter-screen panel (AID 624167)
Settings: CREF/GAPDH counter-screens, run 1, dose range 1, individual replicate IC50 per panel
Measured Quantity: pIC50
Please report pIC50 as the negative decimal logarithm of the molar concentration, giving only the number.

Consider the following illustrative entries.
INSERT INTO measurements (molecule, result_value) VALUES
  ('Cc1cnc(NC(=O)c2ccc3c(c2)OCCO3)s1', 6.42),
  ('CCCn1c(C)cc(C(=O)CN2C(=O)c3ccccc3S2(=O)=O)c1C', 5.20),
  ('COc1ccc(C(=O)O/N=C(\N)c2ccccn2)cc1', 5.88),
  ('CCOc1ccc(OCc2cccc(C(=O)O)c2)cc1', 5.41),
  ('CN(C)c1ccc(/C=C/c2nc3ccccc3s2)cc1', 5.93);

Report pIC50 for NC(Cc1ccc(F)cc1)c1csc(Nc2cc(Oc3ccccc3)ncn2)n1 (configuration not stated) please.
4.67

Query `COc1ccc(-c2cc3nc(C)n(N)c(=O)c3s2)cc1` next
5.99

Query `Cc1cc(C(=O)COC(=O)c2ccccc2O)c(C)n1Cc1cccs1` next
6.09

Query `CC(=O)n1cc(N(C(=O)CCl)c2ccc(C)cc2)c2ccccc21` next
5.27

Query `COc1ccc(/C=C/c2nc3ccccc3n2C)cc1` next
5.47
